Tested on: MS2 coat protein
Experiment notes: apparent Kd, MS2 coat protein; higher = weaker binding; RNA-MaP array
Condition info: ligand present: flavin mononucleotide; designed as: OFF switch for flavin mononucleotide
Readout type: apparent Kd (µM)
Provide only the numeric value, understood in µM.

Previously resolved entries follow.
[[record]]
sequence_code = "AAUAUAGCAGGAUAUACAGAACACCAAUAGACUUCGUUUAGACAUGAGGAUCACCCAUGUAGAAGGGCUCAGAC"
test_target = "MS2 coat protein"
assay_value = 0.00918

[[record]]
sequence_code = "UAGACCGAAGGAUAUACAUGAGGAUCACCCAUGUCAAGGACAUACCCACGAAAGGCACGUAGAAGGUCGGCAUA"
test_target = "MS2 coat protein"
assay_value = 0.0331

[[record]]
sequence_code = "CCCUCUUUAUAGGAUAUGUAGACCAUGGGACAAACAGAAGGAUAGACAUGAGGAUCACCCAUGUGGGAAAACUU"
test_target = "MS2 coat protein"
assay_value = 0.0305

[[record]]
sequence_code = "CUCGUGUGAGGAUAUUGAUCACAGGUCACGGUGCAGGAAUACAAGAAGGCACAUGAGGAUCACCCAUGUAACCG"
test_target = "MS2 coat protein"
assay_value = 0.045


*Q* Return reported apparent Kd; argument: UGGGCGGAAGGAUAUACAUGAGGAUCACCCAUGUGUCUUUUGCUGAUGGGUGCAUAGUGUAGAAGGUCCAGUGU
*A* 0.0387

*Q* GET /values?readout=apparent Kd&item= ACUGAUUAUGUGAGGAUAUCGCUUUCAGGCAGAAACGAGAAGGCACAUGAGGAUCACCCAUGUUACGUCCACUG
*A* 0.00956

*Q* Looking for the measured apparent Kd of GGGUAACAUGAGGAUCACCCAUGUGAGGAUAUCCAUUGUUGGCGACCGGUACGACCACGGAGAAGGCACAGUUC , can you help?
*A* 0.0695

*Q* Return reported apparent Kd; argument: CUUCCACGAGGAUAUCCGUUAACGGACAUGAGGAUCACCCAUGUUAUCCUCACGUCAGCAGGAGAAGGCGUCUCAU
*A* 0.033

*Q* Request the reported apparent Kd associated with UGAACACUGUGAGGAUAUCCACAUGAGGAUCACCCAUGUUUCCUCAGUGAUGCUAUAGCUUCCACGGAGAAGGCACAUGUAAUC
*A* 0.0482

*Q* Given the entry AUCGAUAAGAAGAAGGUGUGACAUGAGGAUCACCCAUGUUAUUGAACAGCACAUGAUCACAGAUACAAGGAUAUUCUACGUAUG , report its measured apparent Kd.
*A* 0.0237

*Q* Which value of apparent Kd has been reported for GGAUGAAGGAAGGAUAUUACGCAGCAACGACCGUAAGAAGGUCCAACAUGAGGAUCACCCAUGUGGUGCUUACU in the records?
*A* 0.159

----------
System: MS2 coat protein
Experiment notes: apparent Kd, MS2 coat protein; higher = weaker binding; RNA-MaP array; theophylline 2 mM where present
Condition info: ligand present: theophylline; designed as: OFF switch for theophylline
Readout type: apparent Kd (nM)
Please give a number only; it is taken to be in nM.

*Q* Tell me the measured apparent Kd of ACAUCCAGGUUAAUCGUGGGCAUACUCGAUACCAGUAUUUUAAUCUACCCUUGGCAGCGACAUGAGGAUCACCCAUGUGCGAUGA , please.
*A* 19.3

*Q* Request the reported apparent Kd associated with UACAUGAGGAUCACCCAUGUAUGAAUGGAUACCAGAUAAAAUAAGGUCCCUUGGCAGCUAGUGAAUCGAGGGUGGGUAUCAUGAU
*A* 10.3

*Q* // query apparent Kd value for entry AGCCCUGUACUAGAUACCAGCUACAUGAGGAUCACCCAUGUGCGUCAAGACUGACUGUGUAGCCCUUGGCAGCUACUCGCAUGUA
*A* 25.5

*Q* Requested read-out: apparent Kd. Entry: ACAUCCAGAUUAAUCGUGGGCAUACUCGAUACCAGUAUUUUAACCUACCCUUGGCAGCGACAUGAGGAUCACCCAUGUGAGAUGA
*A* 30
